Just for reference, patent US12637410B2 is where these values come from.

- TARGET OR TEST SYSTEM: VMAT2 (Rattus norvegicus)
- Construct: from tissue; host or cells: rat striatum, isolated synaptic vesicles
- EXPERIMENT SUMMARY: [3H]Dopamine ([3H]DA) uptake assay, vesicular preparation
- Format: biochemical
RECORDED METRIC: Ki

{"columns": ["COMPOUND", "TARGET OR TEST SYSTEM", "RESULT"],
 "data": [
  ["CC(Cc1ccc(F)c(F)c1)NCCCc1ccc(Cl)c(C(F)(F)F)c1 (stereo not drawn) [Compound 273]", "VMAT2 (Rattus norvegicus)", "538 nM"],
  ["CC(Cc1ccc(F)c(F)c1)NCCCc1ccc(OC(C)C)cc1 (stereo not drawn) [Compound 259]", "VMAT2 (Rattus norvegicus)", "104 nM"],
  ["CC(Cc1ccc(F)c(F)c1)NCCCc1cccc2ncoc12 (stereo not drawn) [Compound 255]", "VMAT2 (Rattus norvegicus)", "54 nM"],
  ["CC(Cc1ccc(F)c(F)c1)NCCCc1cccc(C(F)(F)F)c1 (stereo not drawn) [Compound 250]", "VMAT2 (Rattus norvegicus)", "39 nM"],
  ["CC(Cc1ccc(F)c(F)c1)NCCCc1ccnc(C(F)(F)F)c1 (stereo not drawn) [Compound 247]", "VMAT2 (Rattus norvegicus)", "349 nM"],
  ["CC(Cc1ccc(F)cc1)NCCCc1ccc(NS(C)(=O)=O)cc1 (stereo not drawn) [Compound 275]", "VMAT2 (Rattus norvegicus)", "53 nM"],
  ["CC(Cc1ccc(F)c(F)c1)NCCCc1ccc2nccnc2c1 (stereo not drawn) [Compound 232]", "VMAT2 (Rattus norvegicus)", "52 nM"],
  ["CC(Cc1ccc(F)c(F)c1)NCCCc1ccc2cnoc2c1 (stereo not drawn) [Compound 311]", "VMAT2 (Rattus norvegicus)", "51 nM"],
  ["NC(Cc1cn(Cc2ccccc2)cn1)C(=O)OCC(Cc1ccc(F)cc1)NCCCc1ccc(Br)cc1 (stereo not drawn) [Compound 287]", "VMAT2 (Rattus norvegicus)", "533 nM"]
]}

* * *

- TARGET OR TEST SYSTEM: VMAT2 (Rattus norvegicus, UniProt Q01827)
- Construct: from tissue; host or cells: rat striatum, isolated synaptic vesicles
- Sequence (Q01827 whole entry): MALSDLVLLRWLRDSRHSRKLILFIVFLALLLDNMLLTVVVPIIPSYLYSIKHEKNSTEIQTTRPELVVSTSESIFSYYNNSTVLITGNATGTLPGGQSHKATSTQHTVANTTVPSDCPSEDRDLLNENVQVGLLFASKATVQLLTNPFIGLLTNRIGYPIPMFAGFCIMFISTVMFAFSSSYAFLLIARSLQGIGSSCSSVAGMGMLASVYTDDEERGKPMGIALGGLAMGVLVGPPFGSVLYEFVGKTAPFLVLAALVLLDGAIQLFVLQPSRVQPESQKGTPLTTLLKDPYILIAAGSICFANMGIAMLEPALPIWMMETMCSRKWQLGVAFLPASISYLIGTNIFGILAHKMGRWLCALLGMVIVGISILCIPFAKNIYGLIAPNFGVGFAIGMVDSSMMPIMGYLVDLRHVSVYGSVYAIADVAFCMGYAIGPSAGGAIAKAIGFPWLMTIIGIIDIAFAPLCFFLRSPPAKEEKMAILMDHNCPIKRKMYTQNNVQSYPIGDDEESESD
- EXPERIMENT SUMMARY: [3H]Dopamine ([3H]DA) uptake assay, vesicular preparation
- Assay type: biochemical
Threshold 9 nM: Ki strictly smaller gives t, otherwise f.

{"columns": ["COMPOUND", "CLASS"],
 "data": [
  ["CC(C)C(Cc1ccc(F)cc1)NCCCc1ccccc1 (centres unmarked)", "f"],
  ["O=C(O)C(Cc1ccc(F)cc1)NCCCc1ccc(Br)cc1 (centres unmarked)", "f"],
  ["CC(Cc1ccc(F)c(F)c1)NCCCc1cccc(N(C)C)c1 (centres unmarked)", "f"],
  ["FCC(Cc1ccc(-c2cncnc2)cc1)NCCCc1ccc(F)cc1 (centres unmarked)", "t"]
]}

* * *

- TARGET OR TEST SYSTEM: hERG channel (Homo sapiens)
- Construct: purchased; host or cells: HEK-293 cells stably expressing hERG (membranes)
- Sequence (Q12809 whole entry): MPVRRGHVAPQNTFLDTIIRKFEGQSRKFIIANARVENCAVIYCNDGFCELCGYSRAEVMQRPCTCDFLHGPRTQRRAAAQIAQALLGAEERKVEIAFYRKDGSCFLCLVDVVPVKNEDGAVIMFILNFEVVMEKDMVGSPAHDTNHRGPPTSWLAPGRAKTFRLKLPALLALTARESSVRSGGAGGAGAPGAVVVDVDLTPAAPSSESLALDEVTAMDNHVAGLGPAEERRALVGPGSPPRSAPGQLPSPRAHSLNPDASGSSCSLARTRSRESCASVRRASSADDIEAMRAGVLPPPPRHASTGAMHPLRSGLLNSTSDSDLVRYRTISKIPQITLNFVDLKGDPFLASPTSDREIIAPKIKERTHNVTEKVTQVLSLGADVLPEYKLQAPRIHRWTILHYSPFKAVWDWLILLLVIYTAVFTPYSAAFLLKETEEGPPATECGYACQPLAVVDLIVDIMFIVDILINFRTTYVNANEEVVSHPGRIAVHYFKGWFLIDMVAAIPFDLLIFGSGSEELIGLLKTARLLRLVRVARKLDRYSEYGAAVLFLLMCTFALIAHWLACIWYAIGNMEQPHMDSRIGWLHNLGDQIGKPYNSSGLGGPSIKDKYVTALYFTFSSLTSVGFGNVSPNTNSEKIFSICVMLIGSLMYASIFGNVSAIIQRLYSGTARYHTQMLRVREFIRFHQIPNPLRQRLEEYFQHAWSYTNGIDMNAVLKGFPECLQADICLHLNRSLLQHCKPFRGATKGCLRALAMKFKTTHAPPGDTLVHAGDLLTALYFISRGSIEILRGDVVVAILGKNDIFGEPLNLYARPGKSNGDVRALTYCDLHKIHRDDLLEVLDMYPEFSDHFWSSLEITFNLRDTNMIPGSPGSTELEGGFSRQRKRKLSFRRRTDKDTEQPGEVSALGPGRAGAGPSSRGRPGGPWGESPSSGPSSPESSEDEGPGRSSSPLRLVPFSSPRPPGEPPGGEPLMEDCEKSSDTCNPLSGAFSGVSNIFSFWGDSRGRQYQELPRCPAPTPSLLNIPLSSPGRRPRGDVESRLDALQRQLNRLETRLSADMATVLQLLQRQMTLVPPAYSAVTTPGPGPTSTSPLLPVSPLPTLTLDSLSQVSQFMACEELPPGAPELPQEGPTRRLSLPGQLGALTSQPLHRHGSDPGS
- EXPERIMENT SUMMARY: [3H]Dofetilide binding assay, HEK-293 cell membrane preparation
- PROTOCOL CONDITIONS: hERG Binding: Mean Ki (nM), Table 4; mean, minimally n = 3
// values below are reported Ki

{"columns": ["MOLECULE", "Ki, nM"],
 "data": [
  ["CC(Cc1ccc(C(N)=O)cc1)NCCCc1ccc(F)cc1 (stereo not shown)", 1610],
  ["CC(Cc1ccc(F)c(F)c1)NCCCc1ccc(C(N)=O)c(Cl)c1 (stereo not shown)", 5020],
  ["CC(Cc1ccc(F)c(F)c1)NCCCc1ccc(NC(N)=O)cc1 (stereo not shown)", 4290],
  ["CC(Cc1cccc(F)c1)NCCCc1ccc(C(N)=O)cc1 (stereo not shown)", 12000],
  ["CC(Cc1ccc(NC(N)=O)cc1)NCCCc1ccc(F)cc1 (stereo not shown)", 7110],
  ["CC(Cc1cccc(C(N)=O)c1)NCCCc1ccc(F)cc1 (stereo not shown)", 1310],
  ["CC(Cc1ccc(F)c(F)c1)NCCCc1ccc2nn[nH]c2c1 (stereo not shown)", 3000],
  ["CC(Cc1ccc(F)cc1)NCCCc1ccc(C(N)=O)cc1 (stereo not shown)", 12400],
  ["CC(Cc1ccc(F)c(F)c1)NCCCc1ccc(S(N)(=O)=O)cc1 (stereo not shown)", 1030],
  ["CC(Cc1ccc(F)c(F)c1)NCCCc1ccc2nc[nH]c2c1 (stereo not shown)", 6770]
]}

* * *

List of Ki values.
- TARGET OR TEST SYSTEM: hERG channel (Homo sapiens)
- Construct: purchased; host or cells: HEK-293 cells stably expressing hERG (membranes)
- EXPERIMENT SUMMARY: [3H]Dofetilide binding assay, HEK-293 cell membrane preparation
- PROTOCOL CONDITIONS: hERG Binding: Mean Ki (nM), [3H]dofetilide binding, HEK-293 membranes; mean of n>=3 unless N given
RECORDED METRIC: Ki

{"columns": ["MOLECULE", "RESULT"],
 "data": [
  ["CC(Cc1ccc(F)c(F)c1)NCCCc1cccc(C(N)=O)c1 (stereo not drawn) [Compound 237]", "4780 nM"],
  ["CC(Cc1ccc(F)c(F)c1)NCCCc1ccc(-c2ccnn2C)cc1 (stereo not drawn) [Compound 244]", "1030 nM"],
  ["CC(=O)Nc1ccc(CCCNC(C)Cc2ccc(Br)cc2)cc1 (stereo not drawn) [Compound 276]", "3430 nM"],
  ["CC(Cc1ccc(F)c(F)c1)NCCCc1ccc2cn[nH]c2c1 (stereo not drawn) [Compound 233]", "483 nM"],
  ["CC(Cc1ccc(F)c(F)c1)NCCCc1ccc(Cl)c(C(F)(F)F)c1 (stereo not drawn) [Compound 273]", "1220 nM"],
  ["CC(Cc1ccccc1)NCCCc1ccc(OC(F)(F)F)cc1 (stereo not drawn) [Compound 258]", "90 nM"],
  ["CC(Cc1ccc(F)c(F)c1)NCCCc1ccc2nonc2c1 (stereo not drawn) [Compound 227]", "650 nM"],
  ["CC(Cc1ccc(F)c(F)c1)NCCCc1ccccc1N (stereo not drawn) [Compound 238]", "3250 nM"],
  ["CC(Cc1ccc(F)c(F)c1)NCCCc1ccc2nc[nH]c2c1 (stereo not drawn) [Compound 228]", "6770 nM"]
]}

* * *

- EXPERIMENT SUMMARY: Pharmacokinetic assays in mice (iv, po, sc)
- Assay type: in vivo
RECORDED METRIC: Bioavail. (F %) Fmice

{"columns": ["MOLECULE", "RECORDED METRIC", "RESULT"],
 "data": [
  ["CC(Cc1ccccc1)NCCCc1ccc(S)cc1 (stereo not drawn) [Compound 260]", "Bioavail. (F %) Fmice", "Fmice: 0.9%"],
  ["CC(Cc1ccccc1)NCCCc1ccc(S)cc1 (stereo not drawn) [Compound 216]", "Bioavail. (F %) Fmice", "Fmice: 0.9%"]
]}

* * *

- TARGET OR TEST SYSTEM: VMAT2 (Rattus norvegicus)
- Construct: from tissue; host or cells: rat striatum, isolated synaptic vesicles
- EXPERIMENT SUMMARY: [3H]Dopamine ([3H]DA) uptake assay, vesicular preparation
- Format: biochemical
- PROTOCOL CONDITIONS: read-out: VMAT2 (rat) Inhibition: Mean Ki; [3H]DA uptake, rat vesicular preparation; mean of n>=3 unless N given

{"columns": ["MOLECULE", "Ki (nM)"],
 "data": [
  ["CC(Cc1c[nH]c2ccccc12)NCCCc1ccc(F)cc1 (stereo not shown) [Compound 277]", 66]
]}

* * *

- TARGET OR TEST SYSTEM: VMAT2 (Rattus norvegicus, UniProt Q01827)
- Construct: from tissue; host or cells: rat striatum, isolated synaptic vesicles
- EXPERIMENT SUMMARY: [3H]Dopamine ([3H]DA) uptake assay, vesicular preparation
- Assay type: biochemical

{"columns": ["MOLECULE", "TARGET OR TEST SYSTEM", "INEQUALITY SYMBOL", "Ki (nM)"],
 "data": [
  ["CC(Cc1ccc2nccnc2c1)NCCCc1ccc(C(N)=O)cc1 (centres unmarked) [Compound 307]", "VMAT2 (Rattus norvegicus, UniProt Q01827)", "=", 17],
  ["CC(Cc1ccc(F)cc1)NCCCc1ccc([N+](=O)[O-])c(C(F)(F)F)c1 (centres unmarked) [Compound 251]", "VMAT2 (Rattus norvegicus, UniProt Q01827)", "=", 55],
  ["CC(Cc1ccc(F)c(F)c1)NCCCc1ccc(NS(C)(=O)=O)cc1 (centres unmarked) [Compound 274]", "VMAT2 (Rattus norvegicus, UniProt Q01827)", "=", 45],
  ["CC(Cc1cccc(NC(N)=O)c1)NCCCc1ccc(F)cc1 (centres unmarked) [Compound 306]", "VMAT2 (Rattus norvegicus, UniProt Q01827)", "=", 9],
  ["CC(Cc1ccccc1)N(CCCc1ccc([N+](=O)[O-])cc1)C(=O)OCc1ccccc1 (centres unmarked) [Compound 289]", "VMAT2 (Rattus norvegicus, UniProt Q01827)", "=", 2970],
  ["CC(Cc1ccc(F)c(F)c1)NCCCc1ccc2c(c1)[nH]c(=O)n2C (centres unmarked) [Compound 254]", "VMAT2 (Rattus norvegicus, UniProt Q01827)", "=", 187],
  ["CC(Cc1ccc(F)c(F)c1)NCCCc1ccccc1N (centres unmarked) [Compound 238]", "VMAT2 (Rattus norvegicus, UniProt Q01827)", "=", 220],
  ["CC(Cc1ccc(F)c(F)c1)NCCCc1cccc(NC(N)=O)c1 (centres unmarked) [Compound 235]", "VMAT2 (Rattus norvegicus, UniProt Q01827)", "=", 4],
  ["CC(Cc1ccc(F)c(F)c1)NCCCc1ccc(C(=O)O)cc1 (centres unmarked) [Compound 257]", "VMAT2 (Rattus norvegicus, UniProt Q01827)", "=", 6480],
  ["CC(Cc1ccc(Br)cc1)NCCCc1ccc(N)cc1 (centres unmarked) [Compound 240]", "VMAT2 (Rattus norvegicus, UniProt Q01827)", "=", 48],
  ["CC(Cc1ccc(F)c(F)c1)NCCCc1cccc(-c2cccnc2)c1 (centres unmarked) [Compound 283]", "VMAT2 (Rattus norvegicus, UniProt Q01827)", "=", 41],
  ["CC(Cc1ccc(F)cc1)NCCCc1cccc(N)c1 (centres unmarked) [Compound 241]", "VMAT2 (Rattus norvegicus, UniProt Q01827)", "=", 106],
  ["CC(=O)Nc1ccc(CCCNC(C)Cc2ccc(Br)cc2)cc1 (centres unmarked) [Compound 276]", "VMAT2 (Rattus norvegicus, UniProt Q01827)", "=", 24],
  ["CC(Cc1ccc(F)c(F)c1)NCCCc1ccc(C(N)=O)c(F)c1 (centres unmarked) [Compound 299]", "VMAT2 (Rattus norvegicus, UniProt Q01827)", "=", 29],
  ["C[C@H](Cc1ccccc1)ONCCc1ccccc1 [Compound 296]", "VMAT2 (Rattus norvegicus, UniProt Q01827)", "=", 20000],
  ["CC(Cc1ccc(F)cc1)NC(=O)CCc1ccc(C#N)cc1 (centres unmarked) [Compound 294]", "VMAT2 (Rattus norvegicus, UniProt Q01827)", "=", 40600],
  ["CC(Cc1ccc(F)c(F)c1)NCCCc1cccc(Cl)c1Cl (centres unmarked) [Compound 271]", "VMAT2 (Rattus norvegicus, UniProt Q01827)", "=", 42],
  ["CC(Cc1ccc(F)c(F)c1)NCCCc1ccc2[nH]ncc2c1 (centres unmarked) [Compound 234]", "VMAT2 (Rattus norvegicus, UniProt Q01827)", "=", 54],
  ["COc1ccc(CCCN[C@@H](C)Cc2ccccc2)cc1 [Compound 313]", "VMAT2 (Rattus norvegicus, UniProt Q01827)", "=", 72],
  ["CC(Cc1ccc(F)c(F)c1)NCCCc1cc(Cl)cc(Cl)c1 (centres unmarked) [Compound 270]", "VMAT2 (Rattus norvegicus, UniProt Q01827)", "=", 38],
  ["CC(Cc1ccc(F)c(F)c1)NCCCc1ccc2nc[nH]c2c1 (centres unmarked) [Compound 228]", "VMAT2 (Rattus norvegicus, UniProt Q01827)", "=", 41],
  ["CC(Cc1ccc(F)c(F)c1)NCCCc1ccc2nn[nH]c2c1 (centres unmarked) [Compound 312]", "VMAT2 (Rattus norvegicus, UniProt Q01827)", "=", 8],
  ["CC(Cc1ccc2[nH]cnc2c1)NCCCc1ccc(F)cc1 (centres unmarked) [Compound 303]", "VMAT2 (Rattus norvegicus, UniProt Q01827)", "=", 22],
  ["CC(Cc1ccccc1)N(CCCc1ccc(O)cc1)C(=O)OC(C)(C)C (centres unmarked) [Compound 288]", "VMAT2 (Rattus norvegicus, UniProt Q01827)", ">", 100000],
  ["CC(Cc1ccc(F)c(F)c1)NCCCc1ccc(C(C)(C)C)cc1 (centres unmarked) [Compound 264]", "VMAT2 (Rattus norvegicus, UniProt Q01827)", "=", 209],
  ["CC(Cc1ccc(F)c(F)c1)NCCCc1ccc2nonc2c1 (centres unmarked) [Compound 227]", "VMAT2 (Rattus norvegicus, UniProt Q01827)", "=", 49]
]}
